Molecular target: T1, His-tagged recombinant PHB2 (UniProt Q99623 1-299)
T1 construct: PHB2 (prohibitin 2), recombinant, His-tagged; also called His-PHB2; source: recombinant
T1 sequence (Q99623 whole entry): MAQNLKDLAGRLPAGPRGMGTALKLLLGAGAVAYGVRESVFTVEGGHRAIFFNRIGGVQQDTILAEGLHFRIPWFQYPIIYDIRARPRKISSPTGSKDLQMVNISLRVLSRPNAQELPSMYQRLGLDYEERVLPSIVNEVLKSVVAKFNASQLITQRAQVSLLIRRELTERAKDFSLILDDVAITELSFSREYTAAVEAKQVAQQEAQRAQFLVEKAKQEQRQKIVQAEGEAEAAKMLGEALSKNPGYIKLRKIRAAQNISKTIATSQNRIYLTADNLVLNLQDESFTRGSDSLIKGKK
Test: SPR; Biacore 3000; recombinant PHB2 bound to a CM5 sensor chip, peptides as analytes at the indicated concentrations; BIAevaluation software
Conditions: both partners purified
attribute measured: Kd (µM)
Provide the reading as a plain figure in µM.

What Kd value was documented for this binder, RRRRRRRRRRRGGGQMLSDLTLQLRQR (membrane-permeable polyarginine (11R) and GGG linker, printed as 11R-GGG; also called unstapled original ERAP; dominant-negative peptide; source: synthetic peptide) [ERα activity-regulator synthetic peptide (native ERAP; 11R-GGG-QMLSDLTLQLRQR)] ? 12.8
